B1: TPR t1 (parent)
chain: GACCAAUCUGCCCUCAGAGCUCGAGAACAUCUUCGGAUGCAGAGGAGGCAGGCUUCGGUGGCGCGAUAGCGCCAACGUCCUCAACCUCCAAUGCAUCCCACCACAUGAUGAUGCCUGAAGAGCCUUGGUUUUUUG

# Variants of: B1
# Measurement Notes: polymerase ribozyme fitness, log enrichment relative to wild type (log ratio); higher = more active; in vitro selection for triplet polymerase activity
Kind request: treat -3 as inclusive, so polymerase ribozyme fitness (log ratio) at -3 or higher is label 1, anything lower is label 0.

[
  {
    "Mutation Notation": "G77C C85A",
    "Assigned Label": "label 1"
  },
  {
    "Mutation Notation": "C13U G57A C102A G127C",
    "Assigned Label": "label 0"
  },
  {
    "Mutation Notation": "G45U A46C A91C",
    "Assigned Label": "label 1"
  },
  {
    "Mutation Notation": "A26U C70U U78C",
    "Assigned Label": "label 0"
  },
  {
    "Mutation Notation": "U106C A118U",
    "Assigned Label": "label 1"
  },
  {
    "Mutation Notation": "G39A G42A",
    "Assigned Label": "label 1"
  },
  {
    "Mutation Notation": "G45U U92A",
    "Assigned Label": "label 0"
  },
  {
    "Mutation Notation": "G61A U78G A84U C86A",
    "Assigned Label": "label 1"
  },
  {
    "Mutation Notation": "A26G A66C G113C U126G",
    "Assigned Label": "label 0"
  },
  {
    "Mutation Notation": "C22A C73A G120A",
    "Assigned Label": "label 0"
  },
  {
    "Mutation Notation": "G45U G77U C79U C114G",
    "Assigned Label": "label 0"
  },
  {
    "Mutation Notation": "C11U A16C G63A",
    "Assigned Label": "label 0"
  },
  {
    "Mutation Notation": "C12G G45A G107U",
    "Assigned Label": "label 0"
  },
  {
    "Mutation Notation": "G42U U87G",
    "Assigned Label": "label 1"
  },
  {
    "Mutation Notation": "C8A C115A U125G",
    "Assigned Label": "label 1"
  },
  {
    "Mutation Notation": "C82U U112A",
    "Assigned Label": "label 1"
  },
  {
    "Mutation Notation": "A50U G113U",
    "Assigned Label": "label 1"
  },
  {
    "Mutation Notation": "G42U G52U U96A C124G",
    "Assigned Label": "label 1"
  },
  {
    "Mutation Notation": "G58U C114U",
    "Assigned Label": "label 1"
  },
  {
    "Mutation Notation": "A16U G47C G71U",
    "Assigned Label": "label 0"
  },
  {
    "Mutation Notation": "U7G U9A G120C",
    "Assigned Label": "label 1"
  }
]
